// reported binding as % of Reference Sequence (=100%) for each item listed
- system: purified interference factor(s) from serum of Donor A
- methodDescription: SPR, interference factor on CM5 chip
quantityName: binding as % of Reference Sequence (=100%)

[[record]]
binder = "Nanobody or Nanobody construct of SEQ ID NO: 71 (VHH) VHH: EVQLVESGGGLVQPGGSLRLSCAASRSIGRLDRMGWYRHRPGEPRELVATITGGSSINYGDSVKGRFTISIDNSKNTVYLQMNSLRPEDTAVYYCNFNKYVTSRDTWGQGTLVTVSG"
reportedmeasurement = 88

[[record]]
binder = "Nanobody or Nanobody construct of SEQ ID NO: 70 (VHH) VHH: EVQLVESGGGLVQPGGSLRLSCAASRSIGRLDRMGWYRHRPGEPRELVATITGGSSINYGDSVKGRFTISIDNSKNTVYLQMNSLRPEDTAVYYCNFNKYVTSRDTWGQGTLVQVSS"
reportedmeasurement = 90

[[record]]
binder = "Nanobody or Nanobody construct of SEQ ID NO: 78 (VHH) VHH: EVQLVESGGGLVRPGGSLRLSCAASRSIGRLDRMGWYRHRPGEPRELVATITGGSSINYGDSVKGRFTISIDNSKNTVYLQMNSLRPEDTAVYYCNFNKYVTSRDTWGQGTLVTVSS"
reportedmeasurement = 96

[[record]]
binder = "Nanobody or Nanobody construct of SEQ ID NO: 48 (VHH) VHH: EVQLVESGGGLVQPGGSLRLSCIASGLPFSTKSMGWFRQAPGKEREFVARISPGGTSRYYGDFVKGRFAISRDNAKNTTWLQMNSLKAEDTAVYYCASGERSTYIGSNYYRTNEYDYWGTGTQVTVSS"
reportedmeasurement = 0

[[record]]
binder = "Nanobody or Nanobody construct of SEQ ID NO: 69 (VHH) VHH: EVQLVESGGGLVQPGGSLRLSCAASRSIGRLDRMGWYRHRPGEPRELVATITGGSSINYGDSVKGRFTISIDNSKNTVYLQMNSLRPEDTAVYYCNFNKYVTSRDTWGQGTQVTVSS"
reportedmeasurement = 80

[[record]]
binder = "Nanobody or Nanobody construct of SEQ ID NO: 83 (VHH) VHH: EVQLVESGGGLVQPGGSLRLSCAASRSIGRLDRMGWYRHRPGEPRELVATITGGSSINYGDSVKGRFTISIDNSKNTVYLQMNSLRPEDAAVYYCNFNKYVTSRDTWGQGTLVTVSS"
reportedmeasurement = 56

[[record]]
binder = "Nanobody or Nanobody construct of SEQ ID NO: 68 (VHH) VHH: EVQLVESGGGLVQAGGSLRLSCAASRSIGRLDRMGWYRHRPGEPRELVATITGGSSINYGDSVKGRFTISIDNSKNTVYLQMNSLRPEDTAVYYCNFNKYVTSRDTWGQGTQVTVSS"
reportedmeasurement = 38

[[record]]
binder = "Nanobody or Nanobody construct of SEQ ID NO: 65 (VHH) VHH: EVQLVESGGGLVQAGGSLRLSCAASRSIGRLDRMGWYRHRPGEPRELVATITGGSSINYGDSVKGRFTISIDNSKNTVYLQMNSLRPEDTAVYYCNFNKYVTSRDTWGQGTLVTVSS"
reportedmeasurement = 73

